tested on: Rattus norvegicus; test: In vivo Triglyceride lowering activity at dose as 0.03 % of the diet; type: functional
Kindly state triglyceride lowering activity for each of the entries shown.
Give bare numbers, in %.

CCOC(=O)c1ccc(NC(=O)CCCCCCCCCCCCC[Si](C)(C)C)cc1
91

Now consider the entry below.
Lookup: I am curious: what triglyceride lowering activity value has been reported for O=C(O)CCCCCCCCCCCCCCCNc1ccc(C(=O)O)cc1 ?
Found: 90

###

Molecular target: Sterol O-acyltransferase 1 (Rattus norvegicus) (UniProt O70536)
Sequence (whole entry): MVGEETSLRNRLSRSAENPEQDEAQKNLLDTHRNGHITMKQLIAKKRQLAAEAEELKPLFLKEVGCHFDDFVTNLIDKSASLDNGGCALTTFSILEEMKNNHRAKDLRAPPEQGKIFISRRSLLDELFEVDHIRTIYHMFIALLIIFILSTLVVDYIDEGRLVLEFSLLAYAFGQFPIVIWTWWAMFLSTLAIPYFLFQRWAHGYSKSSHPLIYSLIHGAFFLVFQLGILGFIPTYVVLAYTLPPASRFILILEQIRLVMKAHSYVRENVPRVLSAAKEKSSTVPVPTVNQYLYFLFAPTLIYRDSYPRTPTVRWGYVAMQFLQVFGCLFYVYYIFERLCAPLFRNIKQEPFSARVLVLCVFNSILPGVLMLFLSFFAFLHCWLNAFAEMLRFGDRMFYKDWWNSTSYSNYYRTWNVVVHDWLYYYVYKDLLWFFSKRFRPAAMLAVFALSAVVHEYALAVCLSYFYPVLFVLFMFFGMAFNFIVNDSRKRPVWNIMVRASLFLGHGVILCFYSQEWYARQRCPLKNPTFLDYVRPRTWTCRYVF
Experiment: In vitro inhibitory activity against acyl coenzyme A:cholesterol acyltransferase
Set-up: concentration or dose not given beside the values
Conditions: concentration not given here
readout.label: inhibition (%)
Give bare numbers, in %.

List the reported inhibition of each compound below.
1. CCOC(=O)c1ccc(NCCCCCCCCCCCCCCCCS)cc1
2. CCCCCCCCCCCCCCCCN(CC(=O)OCC)c1ccc(C(=O)OC)cc1
3. CCOC(=O)c1ccc(NCCCCCCCCCCCCCCCC(F)(F)F)cc1

Found:
1. 8
2. 11
3. 8

List the reported inhibition of each compound below.
1. O=C(O)c1ccc(NCCCCCCCCCCCBr)cc1
2. CCOC(=O)c1ccc(NCC(F)(F)C(F)(F)C(F)(F)C(F)(F)C(F)(F)C(F)(F)C(F)(F)F)cc1
3. O=C(O)c1ccc(NCCCCCCCCCCC(F)(F)F)cc1

Found:
8
7
22

List the reported inhibition of each compound below.
1. CCOC(=O)CNc1ccc(C(=O)OCC)cc1
2. CCOC(=O)c1ccc(N2CCCC2=O)cc1

Found:
24
6

###

Kindly state Diet for each of the entries shown.
system: Rattus norvegicus; assay: In vivo Triglyceride lowering activity at dose as 0.10 % of the diet.; format: functional

CCOC(=O)CCCNc1ccc(C(=O)OCC)cc1
103%
CCOC(=O)c1ccc(N2CCCC2=O)cc1
72%
CCCC(Nc1ccc(C(=O)OCC)cc1)C(=O)OCC (stereo unspecified)
77%
CCOC(=O)CCNc1ccc(C(=O)OCC)cc1
103%
CCOC(=O)CN(CC(=O)OCC)c1ccc(C(=O)OCC)cc1
122%
O=C(O)CCCNc1ccc(C(=O)O)cc1
86%
O=C(O)CN(CC(=O)O)c1ccc(C(=O)O)cc1
100%
NC(=O)CNc1ccc(C(=O)O)cc1
102%

List the reported Diet of each compound below.
1. CCOC(=O)c1ccc(NC(C)C(=O)OCC)cc1 (stereo unspecified)
2. CCOC(=O)c1ccc(NC(=O)CCC(=O)OC)cc1

Found:
1: 82%; 2: 114%

List the reported Diet of each compound below.
1. N#CCCCNc1ccc(C(=O)O)cc1
2. CCOC(=O)CNc1ccc(C(=O)OCC)cc1

Found:
93%
121%

List the reported Diet of each compound below.
1. CCOC(=O)CCCCCNc1ccc(C(=O)OCC)cc1
2. O=C(O)CNc1ccc(C(=O)O)cc1
3. O=C(O)CCCCCNc1ccc(C(=O)O)cc1

Found:
["71%", "106%", "102%"]

Lookup: Tell me reported Diet for CCOC(=O)c1ccc(NCCCC#N)cc1 , tested with Rattus norvegicus.
Found: 97%

###

Kindly state triglyceride lowering activity for each of the entries shown.
test system: Rattus norvegicus; assay: In vivo Triglyceride lowering activity at dose as 0.03 % of the diet; assay type: functional

Previously resolved entries follow.
CCOC(=O)c1ccc(NCCCCCCCCCCC[Si](C)(C)C)cc1
111%
O=C(O)c1ccc(NCCCCCCCCCCCCCCCC(F)(F)F)cc1
<41%
CCCCCC(=O)CCCCCCCCCCNc1ccc(C(=O)O)cc1
<57%
CCCCCCCCCCCCCCC(C)Nc1ccc(C(=O)O)cc1 (centres undefined)
68%

List the reported triglyceride lowering activity of each compound below.
1. CCOC(=O)c1ccc(NCCCCCCCCCCCCCCCC(=O)OC)cc1
2. CCCCCCCCCCCCCCCCN(CS(=O)(=O)[O-])c1ccc(C(=O)[O-])cc1.[Na+].[Na+]
3. CCCCCCCCCCCCCCCC(=O)Nc1ccc(C(=O)O)cc1
4. Br.CCOC(=O)c1ccc(NCCCCCCCCCCCSC(=N)N)cc1

Found:
173%
95%
94%
<69%

List the reported triglyceride lowering activity of each compound below.
1. CCOC(=O)c1ccc(NCCCCCCCCCCCCCC[Si](C)(C)C)cc1
2. CCOC(=O)c1ccc(NCCCCCCCCCCCBr)cc1
3. CCOC(=O)c1ccc(NCCCCCCCCCCCCCCC(C)(C)C)cc1
4. CCCCCCCCCCCCCCCCN(CS(=O)(=O)[O-])c1ccc(C(=O)O)cc1.[Na+]

Found:
<66%
83%
<71%
<57%

List the reported triglyceride lowering activity of each compound below.
1. CCCCCCCCCC/C(CCCCCNc1ccc(C(=O)O)cc1)=N/O
2. CCCCCCCCCCC(C)Nc1ccc(C(=O)O)cc1 (centres undefined)
3. CCCCCCCCCCC(C#N)CCCCCNc1ccc(C(=O)O)cc1 (centres undefined)
4. CC(C)CCCCCCCCCCCCCNc1ccc(C(=O)O)cc1
5. CCCCCCCCCCCCCCCCN(C(=O)CCC(=O)O)c1ccc(C(=O)O)cc1
6. O=C(O)c1ccc(NCCCCCCCCCCCCCCCCS)cc1

Found:
1. <30%
2. <49%
3. <66%
4. <68%
5. 90%
6. <45%

List the reported triglyceride lowering activity of each compound below.
1. O=C(O)c1ccc(NCCCCCCCCCCCBr)cc1
2. CCCCCCCCCCCCCCC(C)Nc1ccc(C(=O)OCC)cc1 (centres undefined)
3. O=C(O)c1ccc(NCCCCCCCCCCCC2CCCCC2)cc1
4. C[Si](C)(C)CCCCCCCCCCCCCCNc1ccc(C(=O)O)cc1
5. O=C(O)c1ccc(NCCCCCCCCCCCSCc2ccccc2)cc1

Found:
["<65%", "<55%", "<51%", "<38%", "<52%"]

Lookup: I am curious: what triglyceride lowering activity value has been reported for CCCCCCCCCCC(=O)CCCCCNc1ccc(C(=O)OCC)cc1 ?
Found: 86%

###

system: Rattus norvegicus; assay: In vivo Triglyceride lowering activity at dose as 0.03 % of the diet; assay type: functional
Kindly state triglyceride lowering activity for each of the entries shown.

CCCCCCCCCCC(O)CCCCCNc1ccc(C(=O)O)cc1 (stereo unspecified)
<43%
C[Si](C)(C)CCCCCCCCCCCNc1ccc(C(=O)O)cc1
<54%
CC(C)(C)CCCCCCCCCCCCCCNc1ccc(C(=O)[O-])cc1.[Na+]
<55%
O=C(O)c1ccc(NCCCCCCCCCCCS)cc1
<61%
O=C([O-])CCCCCCCCCCCCCCCNc1ccc(C(=O)[O-])cc1.[Na+].[Na+]
97%
CCOC(=O)c1ccc(NCCCCCCCCCCCCC(C)(C)C)cc1
83%
CCCCCCCCCCCCCCCCN(CC(=O)OCC)c1ccc(C(=O)OC)cc1
97%
CCOC(=O)c1ccc(NCCCCCCCCCCCCCCCC(F)(F)F)cc1
<47%

List the reported triglyceride lowering activity of each compound below.
1. C[Si](C)(C)CCCCCCCCCCCCCCNc1ccc(C(=O)[O-])cc1.[Na+]
2. CC(C)(C)CCCCCCCCCCCCNc1ccc(C(=O)O)cc1
3. CCOC(=O)c1ccc(NCCCCCCCCCCCCCC(C)C)cc1

Found:
1: <43%; 2: <53%; 3: 84%

###

target: Sterol O-acyltransferase 1 (Rattus norvegicus); experiment: In vitro inhibitory activity against acyl coenzyme A:cholesterol acyltransferase; design: concentration or dose not given beside the values; settings: concentration not given here
readout.label: inhibition (%)
Give bare numbers, in %.

Previously resolved entries follow.
CCOC(=O)c1ccc(NCCCCCCCCCCCCCCC(C)(C)C)cc1
5
CCOC(=O)CCNc1ccc(C(=O)OCC)cc1
28
O=C(O)c1ccc(N2CCCC2=O)cc1
0
CCOC(=O)CN(CC(=O)OCC)c1ccc(C(=O)OCC)cc1
32
CCOC(=O)c1ccc(NC(=O)C(F)(F)C(F)(F)C(F)(F)C(F)(F)C(F)(F)C(F)(F)C(F)(F)F)cc1
0

List the reported inhibition of each molecule below.
1. CCCCCCCCCCCCCCCC(=O)Nc1ccc(C(=O)O)cc1
2. O=C(O)c1ccc(NCC2CCCCC2)cc1
3. CCOC(=O)c1ccc(NCCCCCCCCCCCCCCC(C)C)cc1
4. CCOC(=O)c1ccc(NCCCCCCCCCCC[Si](C)(C)C)cc1
5. NC(=O)CNc1ccc(C(=O)O)cc1

Found:
16
1
0
17
17
